These data points were gathered from patent US20120225909A1.

biological target: human α1A-adrenergic receptor (Homo sapiens, UniProt P35348); assay: Test Case 4-B: human α1A-adrenergic receptor agonist activity (Cerep cellular functional GPCR, alpha 1A); assay type: cell-based; set-up: expressed in transfected cells; details: concentration 10 μM, epinephrine = 100%
Sequence (P35348 whole entry): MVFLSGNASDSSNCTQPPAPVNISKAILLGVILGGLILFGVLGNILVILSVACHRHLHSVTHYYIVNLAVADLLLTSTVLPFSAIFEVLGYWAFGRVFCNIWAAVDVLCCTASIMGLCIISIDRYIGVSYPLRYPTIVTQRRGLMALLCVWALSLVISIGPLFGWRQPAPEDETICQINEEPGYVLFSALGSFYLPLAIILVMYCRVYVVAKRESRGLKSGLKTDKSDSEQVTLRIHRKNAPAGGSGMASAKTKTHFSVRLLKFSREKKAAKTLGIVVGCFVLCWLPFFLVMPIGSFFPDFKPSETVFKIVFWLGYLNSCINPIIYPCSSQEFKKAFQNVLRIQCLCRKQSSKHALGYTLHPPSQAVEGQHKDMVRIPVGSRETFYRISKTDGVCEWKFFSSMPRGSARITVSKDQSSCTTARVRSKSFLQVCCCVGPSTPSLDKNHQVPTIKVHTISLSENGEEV
PROPERTY_LABEL: α1 receptor % of Control Agonist Response, Control; Epinephrine (%)
Kindly answer with a numeric value in %, unit omitted.

Reported α1 receptor % of Control Agonist Response, Control; Epinephrine, molecule Nc1ccc(F)c(S(=O)(=O)Nc2cccc([C@@H](O)CNCCOc3ccc4c(Cl)n[nH]c4c3)c2)c1 [ex242] : ____
0.7

Can you share its α1 receptor % of Control Agonist Response, Control; Epinephrine? I mean this molecule: O=S(=O)(Nc1cccc([C@@H](O)CNCCOc2ccc3c(Cl)n[nH]c3c2)c1)c1ccsc1 [ex157]
8.1

Sample CNC[C@H](O)c1ccc(O)c(O)c1 [Epinephrine, epinephrine, reference compound] — what was its α1 receptor % of Control Agonist Response, Control; Epinephrine?
100

Request the reported α1 receptor % of Control Agonist Response, Control; Epinephrine associated with O=S(=O)(Nc1cccc([C@@H](O)CNCCOc2ccc3c(Cl)n[nH]c3c2)c1)c1cn[nH]c1 [ex167]
26

What value of measured α1 receptor % of Control Agonist Response, Control; Epinephrine is listed for O=S(=O)(Nc1cccc([C@@H](O)CNCCOc2ccc3c(OC(F)F)n[nH]c3c2)c1)c1cn[nH]c1 [ex113] ?
6.9

Consider the molecule shown here: Nc1ccc(F)c(S(=O)(=O)Nc2cccc([C@@H](O)CNCCOc3ccc4c(C(F)(F)F)n[nH]c4c3)c2)c1 [ex185] What is its recorded α1 receptor % of Control Agonist Response, Control; Epinephrine?
6.4

State the recorded α1 receptor % of Control Agonist Response, Control; Epinephrine for this entry: O=S(=O)(Nc1cccc([C@@H](O)CNCCOc2ccc3c(Cl)n[nH]c3c2)c1)c1ccccc1F [ex158]
7.8

Please report the recorded α1 receptor % of Control Agonist Response, Control; Epinephrine for Cc1n[nH]c2cc(OCCNC[C@H](O)c3cccc(NS(=O)(=O)c4cccnc4F)c3)ccc12 [ex86] .
−0.4

Please give the measured α1 receptor % of Control Agonist Response, Control; Epinephrine for this molecule: COc1n[nH]c2cc(OCCNC[C@H](O)c3cccc(NS(=O)(=O)c4cn[nH]c4)c3)ccc12 [ex23]
32

Return reported α1 receptor % of Control Agonist Response, Control; Epinephrine; argument: CCc1n[nH]c2cc(OCCNC[C@H](O)c3cccc(NS(=O)(=O)c4cc(N)ccc4F)c3)ccc12 [ex148]
−0.2

Param item = Cc1n[nH]c2cc(OCCNC[C@H](O)c3cccc(NS(=O)(=O)c4c(F)cccc4F)c3)ccc12 [ex71] ; retrieve measured α1 receptor % of Control Agonist Response, Control; Epinephrine.
4.3

I have this molecule here, CCc1n[nH]c2cc(OCCNC[C@H](O)c3cccc(NS(=O)(=O)c4cn[nH]c4)c3)ccc12 [ex149] , and I need its recorded α1 receptor % of Control Agonist Response, Control; Epinephrine.
8.5

Reported α1 receptor % of Control Agonist Response, Control; Epinephrine for CCc1n[nH]c2cc(OCCNC[C@H](O)c3cccc(NS(=O)(=O)c4cnn(C)c4)c3)ccc12 [ex135] : what is it?
0

Form field: reported α1 receptor % of Control Agonist Response, Control; Epinephrine of Nc1ccc(F)c(S(=O)(=O)Nc2cccc([C@@H](O)CNCCOc3ccc4c(OC(F)F)n[nH]c4c3)c2)c1 [ex106]
−0.2

Quick one: α1 receptor % of Control Agonist Response, Control; Epinephrine for O=S(=O)(Nc1cc([C@@H](O)CNCCOc2ccc3c(C(F)(F)F)n[nH]c3c2)ccc1Cl)C1CC1 [ex199] ?
17

Returns the measured α1 receptor % of Control Agonist Response, Control; Epinephrine for the input molecule. Input: O=S(=O)(Nc1cccc([C@@H](O)CNCCOc2ccc3c(C(F)(F)F)n[nH]c3c2)c1)c1cccnc1 [ex186]
0.6

Which α1 receptor % of Control Agonist Response, Control; Epinephrine value is on record for Cc1n[nH]c2cc(OCCNC[C@H](O)c3cccc(NS(=O)(=O)c4cc(F)ccc4F)c3)ccc12 [ex72] ?
6.8

So what does the record say about α1 receptor % of Control Agonist Response, Control; Epinephrine for COc1n[nH]c2cc(OCCNC[C@H](O)c3cccc(NS(=O)(=O)c4cccnc4F)c3)ccc12 [ex24] ?
5.6

What α1 receptor % of Control Agonist Response, Control; Epinephrine value was documented for this molecule, O=S(=O)(Nc1cccc([C@@H](O)CNCCOc2ccc3c(C(F)(F)F)n[nH]c3c2)c1)c1cn[nH]c1 [ex198] ?
19

# query: α1 receptor % of Control Agonist Response, Control; Epinephrine of entry Nc1cccc(S(=O)(=O)Nc2cccc([C@@H](O)CNCCOc3ccc4c(C5CC5)n[nH]c4c3)c2)c1F [ex215]
0.1

Requested read-out: α1 receptor % of Control Agonist Response, Control; Epinephrine. Entry: CCc1n[nH]c2cc(OCCNC[C@H](O)c3cccc(NS(=O)(=O)c4ccccc4F)c3)ccc12 [ex128]
16

Recorded α1 receptor % of Control Agonist Response, Control; Epinephrine of Cc1n[nH]c2cc(OCCNC[C@H](O)c3cccc(NS(=O)(=O)c4ccc(Cl)c(N)c4)c3)ccc12 [ex7] , please.
25

// α1 receptor % of Control Agonist Response, Control; Epinephrine lookup, key: Cc1n[nH]c2cc(OCCNC[C@H](O)c3cccc(NS(=O)(=O)c4cc(F)c(F)cc4F)c3)ccc12 [ex85]
0.1

GET /values?readout=α1 receptor % of Control Agonist Response, Control; Epinephrine&item= O=S(=O)(Nc1cccc([C@@H](O)CNCCOc2ccc3c(OC(F)F)n[nH]c3c2)c1)c1ccccc1F [ex107]
17

Field request: α1 receptor % of Control Agonist Response, Control; Epinephrine | item: NC[C@H](O)c1ccc(O)c(O)c1 [Norepinephrine, reference compound]
116

Look at this molecule and give its reported α1 receptor % of Control Agonist Response, Control; Epinephrine. Cc1n[nH]c2cc(OCCNC[C@H](O)c3cccc(NS(=O)(=O)c4ccc(F)c(N)c4)c3)ccc12 [ex58]
0.6

----------
Consider the following compounds; for each one, report its Emax.
molecular target: human α1A-adrenergic receptor (Homo sapiens); test: Test Case 4-A: human α1A-adrenergic receptor agonist activity (HEK293, Ca flux, Fura-2); format: cell-based; set-up: expressed in transfected cells; host or cells: HEK293 cells, pcDNA3.1; details: HEK293; read-out: α1A receptor I.A.
Quick note: give the figure in %, leave out the unit.

Record lookup: for human α1A-adrenergic receptor (Homo sapiens), what Emax belongs to COc1n[nH]c2cc(OCCNC[C@H](O)c3cccc(NS(=O)(=O)c4cccnc4)c3)ccc12 ?
0

Lab note: need Emax for CCc1n[nH]c2cc(OCCNC[C@H](O)c3cccc(NS(=O)(=O)c4cccc(C)c4)c3)ccc12 on human α1A-adrenergic receptor (Homo sapiens), anyone have it?
0

Give human α1A-adrenergic receptor (Homo sapiens) Emax for Cc1n[nH]c2cc(OCCNC[C@H](O)c3cccc(NS(=O)(=O)c4cc(F)ccc4F)c3)ccc12
1

Tell me reported Emax for COc1n[nH]c2cc(OCCNC[C@H](O)c3cccc(NS(=O)(=O)c4ccccc4F)c3)ccc12 , tested with human α1A-adrenergic receptor (Homo sapiens).
0

Value wanted: Emax (human α1A-adrenergic receptor (Homo sapiens)) of entry O=S(=O)(Nc1cccc([C@@H](O)CNCCOc2ccc3c(OC(F)F)n[nH]c3c2)c1)c1ccccc1F
1

Query Emax on human α1A-adrenergic receptor (Homo sapiens) for NC[C@H](O)c1ccc(O)c(O)c1 [Norepinephrine, reference compound]
100

Provide value of Emax for this record tested with human α1A-adrenergic receptor (Homo sapiens): COc1cccc(S(=O)(=O)Nc2cccc([C@@H](O)CNCCOc3ccc4c(OC)n[nH]c4c3)c2)c1
0

Param readout = Emax; param system = human α1A-adrenergic receptor (Homo sapiens); param query = Cc1n[nH]c2cc(OCCNC[C@H](O)c3cccc(NS(=O)(=O)c4cc(N)ccc4F)c3)ccc12 ; response: value
0

Recall the recorded Emax for CCc1n[nH]c2cc(OCCNC[C@H](O)c3cccc(NS(=O)(=O)c4cccs4)c3)ccc12 with human α1A-adrenergic receptor (Homo sapiens) and state it.
0

Quick check: Emax on human α1A-adrenergic receptor (Homo sapiens), item CCc1n[nH]c2cc(OCCNC[C@H](O)c3cccc(NS(=O)(=O)c4cccc(OC)c4)c3)ccc12 ?
0

Please provide the recorded Emax for O=S(=O)(Nc1cccc([C@@H](O)CNCCOc2ccc3c(C(F)(F)F)n[nH]c3c2)c1)c1ccccc1F , tested on human α1A-adrenergic receptor (Homo sapiens).
1

Form: Entry = CCc1n[nH]c2cc(OCCNC[C@H](O)c3cccc(NS(=O)(=O)c4cccc(N)c4)c3)ccc12 | System = human α1A-adrenergic receptor (Homo sapiens) | Emax = ____
0

# get_value(readout= Emax, system= human α1A-adrenergic receptor (Homo sapiens)) for COc1n[nH]c2cc(OCCNC[C@H](O)c3cccc(NS(=O)(=O)c4cccs4)c3)ccc12
0

I'm curious: which Emax was measured for Cc1n[nH]c2cc(OCCNC[C@H](O)c3cccc(NS(=O)(=O)c4cn(C)cn4)c3)ccc12 tested on human α1A-adrenergic receptor (Homo sapiens)?
0

Lab note: need Emax with human α1A-adrenergic receptor (Homo sapiens) for entry Cc1n[nH]c2cc(OCCNC[C@H](O)c3cccc(NS(=O)(=O)c4cn[nH]c4)c3)ccc12 , please look it up.
13

Query Emax on human α1A-adrenergic receptor (Homo sapiens) for O=S(=O)(Nc1cccc([C@@H](O)CNCCOc2ccc3c(C(F)(F)F)n[nH]c3c2)c1)C1CC1
4
